- assay explanation: Pharmacokinetic analysis (oral bioavailability, elimination half-life) in the rat
- Type: in vivo
- condition info: oral administration, 8 mg/kg dose, HPLC-MS
Param threshold (100 min) applies to Elimination Half-life (t1/2, rat, min); output yes when value >= threshold, no when value < threshold.

A selection of reference data follows.
C[C@@H]1CN[C@@H](C2CC2)C(=O)N(C)[C@H](C)C(=O)N[C@H](Cc2ccc(O)cc2)C(=O)N(C)CCCc2ccccc2O1 : yes
CC1CNC(C2CC2)C(=O)N(C)C(C)C(=O)NC(CC2CCCCC2)C(=O)NCCCC2CCCCC2O1 (mixture of isomers) : yes
C[C@@H]1CN[C@@H](C2CC2)C(=O)N(C)[C@H](C)C(=O)N[C@H](Cc2ccc(F)cc2)C(=O)N[C@@H](C)CCc2ccccc2O1 : yes
CC1NC(C2CC2)C(=O)N(C)C(C)C(=O)NC(Cc2ccc(O)cc2)C(=O)NCCCc2ccccc2OC1C (stereo not shown) : yes
CC(C)C[C@H]1NC(=O)[C@@H](C)N(C)C(=O)[C@H](C2CC2)NCCOc2c(F)cccc2CCCNC1=O : no
C[C@@H]1CN[C@@H](C2CC2)C(=O)N(C)[C@H](C)C(=O)N[C@H](Cc2ccc(F)cc2)C(=O)NCCCc2cccc(F)c2O1 : no
CC(C)CC1NC(=O)C(C)N(C)C(=O)C(C2CC2)NC(C)C(C)Oc2ccccc2CCCNC1=O (stereo not shown) : yes
CC(C)C[C@H]1NC(=O)[C@@H](C)N(C)C(=O)[C@H](C2CC2)NC[C@@H](C)Oc2c(F)cccc2CCCNC1=O : no
CC1CNC(C2CCCCC2)C(=O)N(C)C(C)C(=O)NC(Cc2ccc(O)cc2)C(=O)NCCCC2CCCCC2O1 (mixture of isomers) : no
C[C@@H]1CN[C@@H](C2CC2)C(=O)N(C)[C@H](C)C(=O)N[C@H](Cc2ccc(O)cc2)C(=O)NCCCc2ccccc2O1 : yes

Query: Quick check, Elimination Half-life (t1/2, rat, min) >= 100 min? C[C@@H]1CN[C@@H](C2CC2)C(=O)N(C)[C@H](C)C(=O)N[C@H](Cc2ccc(F)cc2)C(=O)NCCCc2ccc(F)cc2O1
Reply: yes

Query: Quick check, Elimination Half-life (t1/2, rat, min) >= 100 min? C[C@@H]1CN[C@@H](C2CC2)C(=O)N(C)[C@H](C)C(=O)N[C@H](Cc2ccc(O)cc2)C(=O)N[C@@H](C)CCc2ccccc2O1
Reply: yes

Query: Tell me whether Elimination Half-life (t1/2, rat, min) is at least 100 min here: C[C@@H]1C(=O)N[C@H](Cc2ccc(O)cc2)C(=O)NCCCc2cccc3c2O[C@H](CC3)CN[C@@H](C2CC2)C(=O)N1C
Reply: yes

----------
Quick reference for Ki among some molecules
- study target: human growth hormone secretagogue receptor (hGHS-R1a) (Homo sapiens, UniProt Q92847)
- Sequence (Q92847 whole entry): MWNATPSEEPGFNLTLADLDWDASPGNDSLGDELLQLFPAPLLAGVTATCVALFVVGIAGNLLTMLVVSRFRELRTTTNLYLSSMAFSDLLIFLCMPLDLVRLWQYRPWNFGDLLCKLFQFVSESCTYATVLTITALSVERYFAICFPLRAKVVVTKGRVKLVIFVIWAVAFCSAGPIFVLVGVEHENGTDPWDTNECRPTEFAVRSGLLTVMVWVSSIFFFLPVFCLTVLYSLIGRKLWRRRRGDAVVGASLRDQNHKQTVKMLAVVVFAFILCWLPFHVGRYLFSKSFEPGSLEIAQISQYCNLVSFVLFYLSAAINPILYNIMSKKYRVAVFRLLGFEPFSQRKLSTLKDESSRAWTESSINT
- assay explanation: Competitive radioligand binding assay (ghrelin receptor), standard method A
- condition info: binding activity at the human ghrelin receptor, standard method A

Sample records with Ki:
CC(C)C[C@H]1NC(=O)[C@@H](C)N(C)C(=O)[C@H](C2CCCCC2)NC[C@@H](C)Oc2cccnc2CCCNC1=O : ≤ 100 nM
C[C@@H]1CN[C@@H](C2CC2)C(=O)N(C)[C@H](C)C(=O)N[C@H](Cc2ccc(F)c(F)c2)C(=O)NCCCc2ccccc2O1 : ≤ 100 nM
CC(C)C[C@H]1NC(=O)[C@@H](C)N(C)C(=O)[C@H](C2CC2)NC[C@@H]2CCc3cccc(c3O2)CCCNC1=O : ≤ 500 nM
C[C@@H]1CN[C@@H](C2CC2)C(=O)N(C)[C@H](C)C(=O)N[C@H]([C@H](C)O)C(=O)NCCCc2ccccc2O1 : > 500 nM
CCC[C@@H]1NC[C@@H](C)Oc2ccccc2CCCNC(=O)[C@@H](Cc2ccc(F)cc2)NC(=O)[C@@H](C)N(C)C1=O : ≤ 100 nM

Now for the molecule whose Ki we want.
Query: Look up and state reported Ki for C[C@@H]1C(=O)N[C@H](Cc2ccc(F)cc2)C(=O)NCCCc2ccccc2OC(C)(C)CN[C@@H](C2CC2)C(=O)N1C
Reply: ≤ 100 nM

Taken from patent US10258602B2.
